assay: qHTS assay for small molecule agonists of the p53 signaling pathway (AID 651631); conditions: HCT-116 p53RE-bla reporter, beta-lactamase FRET ratio, 16 h; series mostly up to 73.3 µM; note: nearly all actives have a fitted effect of over 15% in size
Records with an inconclusive call do not appear. The source made the active and inactive calls. Calls come from the whole dose curve.
Possible outcomes: Y = active, N = inactive

>>> class_assignment("CC(C(O)c1ccc(O)cc1)N1CCC(Cc2ccccc2)CC1 (centres undefined)")
"N"
>>> class_assignment("Cc1cc(C(C)(C)C)c(O)c(C(C)(C)C)c1")
"N"
>>> class_assignment("Cc1ccnc2c1NC(=O)c1cccnc1N2C1CC1")
"N"
>>> class_assignment("NC(N)=NC(=O)Cc1c(Cl)cccc1Cl")
"N"
>>> class_assignment("CC(=O)N[C@@H](CS)C(=O)O")
"N"
>>> class_assignment("O=Cc1ccc(Cl)cc1")
"N"
>>> class_assignment("O=C(O)CCc1ccccc1")
"N"
>>> class_assignment("CC(=O)CC(C)=O")
"N"
>>> class_assignment("C=CC(=O)OCCCCCCOC(=O)C=C")
"Y"
>>> class_assignment("CO[Si](OC)(OC)c1ccccc1")
"N"
>>> class_assignment("c1ccc2n[nH]nc2c1")
"N"
>>> class_assignment("Nc1nc2ccccc2[nH]1")
"N"
>>> class_assignment("Cc1cccc(O)c1C")
"N"
>>> class_assignment("CCCCC/C=C/CC1CC(=O)OC1=O (centres undefined)")
"N"
>>> class_assignment("COC(=O)c1cccc(C(=O)OC)c1")
"N"
>>> class_assignment("CNCCC(Oc1ccc(C(F)(F)F)cc1)c1ccccc1 (centres undefined)")
"Y"
>>> class_assignment("NCCO")
"N"
>>> class_assignment("NC(Cc1ccc(Cl)cc1)C(=O)O (centres undefined)")
"N"
>>> class_assignment("NC(N)=Nc1nc(CSCC/C(N)=N/S(N)(=O)=O)cs1")
"N"
>>> class_assignment("CC[C@]1(O)C[C@@H]2CN(CCc3c([nH]c4ccccc34)[C@@](C(=O)OC)(c3cc4c(cc3OC)N(C)[C@H]3[C@@](O)(C(=O)OC)[C@H](OC(C)=O)[C@]5(CC)C=CCN6CC[C@]43[C@@H]65)C2)C1")
"Y"
>>> class_assignment("CCOc1ccccc1C(N)=O")
"N"
>>> class_assignment("O=C(OCc1ccccc1)c1ccc(O)cc1")
"N"
>>> class_assignment("CCCN[C@H]1CCc2nc(N)sc2C1")
"N"
>>> class_assignment("CCN1CCCC1CNC(=O)c1cc(S(=O)(=O)CC)c(N)cc1OC (centres undefined)")
"N"

====

assay: qHTS assay to identify small molecule antagonists of the estrogen receptor beta (ER-beta) signaling pathway - cell viability counter screen (AID 1259382); settings: ER-beta-UAS-bla HEK293T viability, CellTiter-Glo luminescence, 16 h; series mostly up to 92.4 µM; note: nearly all actives have a fitted effect of over 55% in size
Records with an inconclusive call do not appear. Calls of active or inactive are those of the source. Calls come from the whole dose curve; as a rule, active = well fitted cell-killing curve with a large enough effect in the repeat runs; inconclusive = weak or mixed curves; inactive = flat fitted curve, though single readings scatter.
Outcomes: True for active, False for inactive

>>> class_assignment("O=C(O)CCc1ccccc1")
"False"
>>> class_assignment("CCc1cc(C(C)(C)C)c(O)c(C(C)(C)C)c1")
"False"
>>> class_assignment("C=C(C)C1CC=C(C)C(OC(C)=O)C1 (stereo not drawn)")
"False"
>>> class_assignment("CN1C(=O)c2ccc([N+](=O)[O-])cc2C1=O")
"False"
>>> class_assignment("Cc1cc(C2(c3cc(C)c(O)cc3C)OS(=O)(=O)c3ccccc32)c(C)cc1O")
"False"
>>> class_assignment("Clc1ccc2c(c1)C(N1CCNCC1)=Nc1ccccc1O2")
"False"
>>> class_assignment("O=C1OC2(c3ccc(O)cc3Oc3cc(O)ccc32)c2ccccc21")
"False"
>>> class_assignment("CCn1c2ccccc2c2cc(N)ccc21")
"False"
>>> class_assignment("NNCCc1ccccc1")
"False"
>>> class_assignment("O=C(O)CP(=O)(O)O")
"False"
>>> class_assignment("OCCOCCN1CCN(C(c2ccccc2)c2ccc(Cl)cc2)CC1 (stereo not drawn)")
"True"
>>> class_assignment("COc1ccc(CCN(C)CCCC(C#N)(c2ccc(OC)c(OC)c2)C(C)C)cc1OC (stereo not drawn)")
"False"
>>> class_assignment("NCCO")
"False"
>>> class_assignment("CC(N)=O")
"False"
>>> class_assignment("CO[Si](OC)(OC)c1ccccc1")
"False"
>>> class_assignment("O=C(O)c1cn(-c2ccc(F)cc2)c2cc(N3CCNCC3)c(F)cc2c1=O")
"False"
>>> class_assignment("NC(N)=NC(=O)Cc1c(Cl)cccc1Cl")
"False"
>>> class_assignment("CCC(=O)/C=C/C1C(C)=CCCC1(C)C (stereo not drawn)")
"False"
